System: Caco-2
Assay: cell viability relative to DMSO; higher = less toxic
Conditions: 72 h; 10000 nM
Record form. Attribute: cell viability. Fill in for each entry.
Give bare numbers, in %.

Return reported cell viability values for all items listed beneath this line.
1. CC(=O)Nc1ncc([N+](=O)[O-])s1 [nithiamide]
2. COc1ccc2[nH]c(-c3ccccc3)c(CCNC(C)=O)c2c1 [2-phenylmelatonin]
3. CCOC(=O)CCC(=O)O[C@H]1[C@H](O[C@@H]2[C@@H](C)[C@H](O[C@H]3C[C@@](C)(OC)[C@@H](O)[C@H](C)O3)[C@@H](C)C(=O)O[C@H](CC)[C@@](C)(O)[C@H](O)[C@@H](C)C(=O)[C@H](C)C[C@@]2(C)O)O[C@H](C)C[C@@H]1N(C)C [erythromycin-ethylsuccinate]
4. COc1cc2nccc(Oc3ccc(NC(=O)NC4CC4)c(Cl)c3)c2cc1C(N)=O [lenvatinib]
5. C=CC(=O)Nc1ccc2ncnc(Nc3cccc(Br)c3)c2c1

Reply:
1: 94.1; 2: 82.6; 3: 99.5; 4: 75.6; 5: 70.6

Task item: I am curious: what cell viability value has been reported for Cc1oc(-c2ccccc2)nc1CCOc1ccc(CC2SC(=O)NC2=O)c2sccc12 (stereo unspecified) [edaglitazone] ?
Reply: 87.2
